protocol: Octanol-water partition coefficient (n-octanol/PBS pH 7.4)
Type: physicochemical
test parameters: n-octanol/PBS, pH 7.4, octanol/PBS7.4; mean of individual measurements; read-out: log P Mean
measured metric: logP

response.value for CC(C)(C)[Si](F)(c1ccc(C(=O)NC[C@@H](NC(=O)CC[C@@H](C(=O)O)N2CCN(CC(=O)O)CCN(CC(=O)O)CCN(CC(=O)O)CC2)C(=O)N[C@H](CCCCNC(=O)CCC(=O)NCCC[C@@H](NC(=O)CC[C@H](NC(=O)N[C@@H](CCC(=O)O)C(=O)O)C(=O)O)C(=O)O)C(=O)O)cc1)C(C)(C)C [rhPSMA7.3, [^19F][^natGa]D-Dap-S-DOTAGA-rhPSMA7, metal not drawn] (field: logP) = -3.26

###

Tested on: LNCaP tumor-bearing CB-17 SCID mice
test parameters: male, mouse, in vivo, 1 h
measured metric: Biodistribution adrenals (% ID/g)
Use % ID/g as the unit, but write only the number.

Value sought: Biodistribution adrenals, system LNCaP tumor-bearing CB-17 SCID mice, item CC(C)(C)[Si](F)(c1ccc(C(=O)NC[C@H](NC(=O)CC[C@@H](C(=O)O)N2CCN(CC(=O)O)CCN(CC(=O)O)CCN(CC(=O)O)CC2)C(=O)N[C@H](CCCCNC(=O)CCC(=O)NCCC[C@@H](NC(=O)CC[C@H](NC(=O)N[C@@H](CCC(=O)O)C(=O)O)C(=O)O)C(=O)O)C(=O)O)cc1)C(C)(C)C [rhPSMA7.4, [^19F][^natGa]L-Dap-S-DOTAGA-rhPSMA7, metal not drawn] . Result: 3.57

###

tgt: PSMA (Homo sapiens)
Construct: endogenous in cells; host or cells: LNCaP cells
protocol: Determination of IC50: PSMA affinity, competition with ([125I]I-BA)KuE on LNCaP cells
Assay type: binding
test parameters: LNCaP cells, [125I]IB-KuE 0.2 nM, 1 h, 4 °C; mean of the individual measurements; read-out: IC50 Mean
measured metric: pIC50
Formally, pIC50 is defined as -log10 of the concentration c, with c in mol/L.

response.value for CC(C)(C)[Si](F)(c1ccc(C(=O)NC[C@H](NC(=O)CC[C@@H](C(=O)O)N2CCN(CC(=O)O)CCN(CC(=O)O)CCN(CC(=O)O)CC2)C(=O)N[C@H](CCCCNC(=O)CCC(=O)NCCC[C@@H](NC(=O)CC[C@H](NC(=O)N[C@@H](CCC(=O)O)C(=O)O)C(=O)O)C(=O)O)C(=O)O)cc1)C(C)(C)C [rhPSMA7.4, [^19F][^natGa]L-Dap-S-DOTAGA-rhPSMA7, metal not drawn] (field: pIC50) = 8.44

###

tgt: HSA (Homo sapiens, UniProt P02768)
Construct: purchased H13H-2433
Sequence (P02768 25-609): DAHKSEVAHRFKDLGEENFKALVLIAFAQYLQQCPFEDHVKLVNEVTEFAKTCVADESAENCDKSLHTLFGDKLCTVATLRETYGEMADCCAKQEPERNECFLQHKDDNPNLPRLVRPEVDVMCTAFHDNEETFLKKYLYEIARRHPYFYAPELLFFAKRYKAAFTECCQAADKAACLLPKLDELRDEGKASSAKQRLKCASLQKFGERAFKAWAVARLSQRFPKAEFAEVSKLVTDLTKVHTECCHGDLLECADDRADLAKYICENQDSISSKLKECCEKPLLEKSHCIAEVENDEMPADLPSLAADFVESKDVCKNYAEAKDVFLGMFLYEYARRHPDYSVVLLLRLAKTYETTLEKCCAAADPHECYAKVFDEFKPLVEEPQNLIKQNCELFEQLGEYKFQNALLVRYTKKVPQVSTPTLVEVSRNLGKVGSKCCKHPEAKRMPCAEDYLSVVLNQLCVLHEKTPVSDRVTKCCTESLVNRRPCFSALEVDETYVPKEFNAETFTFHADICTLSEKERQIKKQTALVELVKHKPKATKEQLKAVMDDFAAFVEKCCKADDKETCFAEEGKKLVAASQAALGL
protocol: HSA binding on Chiralpak HSA column
Format: in vitro ADME
test parameters: Chiralpak HSA column (50 × 3 mm, 5 μm), (n = 6)
Readings of HSA Binding for the listed compounds
Use % as the unit, but write only the number.

// below: answered compounds
[[record]]
compound = "CC(C)(C)[Si](F)(c1ccc(C(=O)NC[C@@H](NC(=O)CC[C@@H](C(=O)O)N2CCN(CC(=O)O)CCN(CC(=O)O)CCN(CC(=O)O)CC2)C(=O)N[C@H](CCCCNC(=O)CCC(=O)NCCC[C@@H](NC(=O)CC[C@H](NC(=O)N[C@@H](CCC(=O)O)C(=O)O)C(=O)O)C(=O)O)C(=O)O)cc1)C(C)(C)C [rhPSMA7.3, [^19F][^natGa]D-Dap-S-DOTAGA-rhPSMA7, metal not drawn]"
tgt = "HSA (Homo sapiens, UniProt P02768)"
val = 96.9

[[record]]
compound = "CC(C)(C)[Si](F)(c1ccc(C(=O)NC[C@H](NC(=O)CC[C@H](C(=O)O)N2CCN(CC(=O)O)CCN(CC(=O)O)CCN(CC(=O)O)CC2)C(=O)N[C@H](CCCCNC(=O)CCC(=O)NCCC[C@@H](NC(=O)CC[C@H](NC(=O)N[C@@H](CCC(=O)O)C(=O)O)C(=O)O)C(=O)O)C(=O)O)cc1)C(C)(C)C [rhPSMA7.2, [^19F][^natGa]L-Dap-R-DOTAGA-rhPSMA7, metal not drawn]"
tgt = "HSA (Homo sapiens, UniProt P02768)"
val = 97.8

[[record]]
compound = "CC(C)(C)[Si](F)(c1ccc(C(=O)NC[C@@H](NC(=O)CC[C@H](C(=O)O)N2CCN(CC(=O)O)CCN(CC(=O)O)CCN(CC(=O)O)CC2)C(=O)N[C@H](CCCCNC(=O)CCC(=O)NCCC[C@@H](NC(=O)CC[C@H](NC(=O)N[C@@H](CCC(=O)O)C(=O)O)C(=O)O)C(=O)O)C(=O)O)cc1)C(C)(C)C [rhPSMA7.1, [^19F][^natGa]D-Dap-R-DOTAGA-rhPSMA7, metal not drawn]"
tgt = "HSA (Homo sapiens, UniProt P02768)"
val = 97.7

[[record]]
compound = "CC(C)(C)[Si](F)(c1ccc(C(=O)NC[C@H](NC(=O)CC[C@@H](C(=O)O)N2CCN(CC(=O)O)CCN(CC(=O)O)CCN(CC(=O)O)CC2)C(=O)N[C@H](CCCCNC(=O)CCC(=O)NCCC[C@@H](NC(=O)CC[C@H](NC(=O)N[C@@H](CCC(=O)O)C(=O)O)C(=O)O)C(=O)O)C(=O)O)cc1)C(C)(C)C [rhPSMA7.4, [^19F][^natGa]L-Dap-S-DOTAGA-rhPSMA7, metal not drawn]"
tgt = "HSA (Homo sapiens, UniProt P02768)"
val = 96.6


Now consider the entry below.
response.value for O=C(O)CC[C@H](NC(=O)N[C@@H](CCCCNC(=O)c1ccc(F)nc1)C(=O)O)C(=O)O (field: HSA Binding) = 14.3

###

tgt: PSMA (Homo sapiens, UniProt Q04609)
Construct: endogenous in cells; host or cells: LNCaP cells
protocol: Determination of IC50: PSMA affinity, competition with ([125I]I-BA)KuE on LNCaP cells
Format: binding
test parameters: LNCaP cells, [125I]IB-KuE 0.2 nM, 1 h, 4 °C; mean of the individual measurements; read-out: IC50 Mean
Readings of IC50 for the listed compounds

[[record]]
compound = "CC(C)(C)[Si](F)(c1ccc(C(=O)NC[C@H](NC(=O)CC[C@H](C(=O)O)N2CCN(CC(=O)O)CCN(CC(=O)O)CCN(CC(=O)O)CC2)C(=O)N[C@H](CCCCNC(=O)CCC(=O)NCCC[C@@H](NC(=O)CC[C@H](NC(=O)N[C@@H](CCC(=O)O)C(=O)O)C(=O)O)C(=O)O)C(=O)O)cc1)C(C)(C)C [rhPSMA7.2, [^19F][^natGa]L-Dap-R-DOTAGA-rhPSMA7, metal not drawn]"
tgt = "PSMA (Homo sapiens, UniProt Q04609)"
val = "3.7 nM"

[[record]]
compound = "CC(C)(C)[Si](F)(c1ccc(C(=O)NC[C@@H](NC(=O)CC[C@H](C(=O)O)N2CCN(CC(=O)O)CCN(CC(=O)O)CCN(CC(=O)O)CC2)C(=O)N[C@H](CCCCNC(=O)CCC(=O)NCCC[C@@H](NC(=O)CC[C@H](NC(=O)N[C@@H](CCC(=O)O)C(=O)O)C(=O)O)C(=O)O)C(=O)O)cc1)C(C)(C)C [rhPSMA7.1, [^19F][^natGa]D-Dap-R-DOTAGA-rhPSMA7, metal not drawn]"
tgt = "PSMA (Homo sapiens, UniProt Q04609)"
val = "6.85 nM"


response.value for CC(C)(C)[Si](F)(c1ccc(C(=O)NC[C@@H](NC(=O)CC[C@@H](C(=O)O)N2CCN(CC(=O)O)CCN(CC(=O)O)CCN(CC(=O)O)CC2)C(=O)N[C@H](CCCCNC(=O)CCC(=O)NCCC[C@@H](NC(=O)CC[C@H](NC(=O)N[C@@H](CCC(=O)O)C(=O)O)C(=O)O)C(=O)O)C(=O)O)cc1)C(C)(C)C [rhPSMA7.3, [^19F][^natGa]D-Dap-S-DOTAGA-rhPSMA7, metal not drawn] (field: IC50) = 4.37 nM

###

protocol: Octanol-water partition coefficient (n-octanol/PBS pH 7.4)
Assay type: physicochemical
test parameters: pH 7.4, log P
measured metric: logP
When you answer, write just the number.

response.value for CC(C)(C)[Si](F)(c1ccc(C(=O)NC[C@H](NC(=O)CC[C@H](C(=O)O)N2CCN(CC(=O)O)CCN(CC(=O)O)CCN(CC(=O)O)CC2)C(=O)N[C@H](CCCCNC(=O)CCC(=O)NCCC[C@@H](NC(=O)CC[C@H](NC(=O)N[C@@H](CCC(=O)O)C(=O)O)C(=O)O)C(=O)O)C(=O)O)cc1)C(C)(C)C [rhPSMA7.2, [^19F][^natGa]L-Dap-R-DOTAGA-rhPSMA7, metal not drawn] (field: logP) = -3.13
